- Protocol Description: chemical genetic growth profiling, strain panel (AID 1159580);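 also: tested at 20 µM; growth read once vehicle control cultures reached saturation at 30 °C; 1 = growth at the plate median or of vehicle wells; lower values mean less growth of the strain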
- Protocol Conditions: S. cerevisiae deletion strains, growth OD, locus YHR030C, strain SLT2, active compounds read low
About 2,000 (36%) of roughly 5,500 compounds were called active. About 18% were inconclusive and are not listed. This is one part of the list.
Measured Endpoint: normalized growth
Reply with the value as a number alone.

CC(=O)/C(=C\c1ccccc1)CC(=O)O | 0.976
Cc1c(Cl)cccc1NC(=S)Nc1ccc(Cl)cc1C(=O)c1ccccc1 | 0.894
NCC(CC(=O)O)c1ccc(Cl)s1 (stereo unspecified) | 0.989
O=[N+]([O-])c1cc(Br)cnc1Sc1nnc(SCC2CC2)s1 | 0.197
Nc1nc2ncc(C(=O)O)nc2c(=O)[nH]1 | 1.01

The record that follows has no normalized growth shown yet.
Return normalized growth for the following molecule: CN1C2CCC1CC(=NO)C2
1.07
